# measurement.target: UniProtKB P25929
# measurement.notes: Inhibition of binding of [125I]PYY to membranes of SK-N-MC cells expressing the human Y1 receptors
measurement.type: IC50 (nM)

[
  {
    "molecule": "COC(=O)C1=C(C)N=C(C)/C(=C(/O)OC)C1c1cccc(NC(=O)NCCCN2CCN(c3ccccc3OC)CC2)c1 (configuration not stated)",
    "measurement.type": "IC50",
    "recorded.measurement": 12
  },
  {
    "molecule": "COC(=O)C1=C(C)N=C(C)/C(=C(/O)OC)C1c1cccc(NC(=O)NCCNC2CCN(c3ccccc3[N+](=O)[O-])CC2)c1 (configuration not stated)",
    "measurement.type": "IC50",
    "recorded.measurement": 2
  }
]

a = COC(=O)C1=C(C)N=C(C)/C(=C(/O)OC)C1c1cccc(NC(=O)NCCNC2CCN(c3ccccc3OC)CC2)c1 (configuration not stated)
b = COC(=O)C1=C(C)N=C(C)/C(=C(/O)OC)C1c1cccc(N/C(=N/CCNC2CCN(c3ccccc3C#N)CC2)NC#N)c1 (configuration not stated)
c = COC(=O)C1=C(C)N=C(C)/C(=C(/O)OC)C1c1cccc(NC(=O)NCCNC2CCN(c3ccccc3OC(F)(F)F)CC2)c1 (configuration not stated)
d = COC(=O)C1=C(C)N=C(C)/C(=C(/O)OC)C1c1cccc(N/C(=N/CCNC2CCN(c3ccccc3)CC2)NC#N)c1 (configuration not stated)
e = COC(=O)C1=C(C)N=C(C)/C(=C(/O)OC)C1c1cccc(NC(=O)NCCNC2CCN(c3ccccc3SC)CC2)c1 (configuration not stated)
QUERY: Sort these molecules on IC50 so the largest reading comes first. Give the labels in the order specified.
RESULT: c, d, e, b, a
(c: 25 nM, d: 10 nM, e: 5 nM, b: 3 nM, a: 2 nM)

====

# measurement.target: Neuropeptide Y receptor type 1 (Homo sapiens, UniProt P25929)
# Sequence (P25929 whole entry): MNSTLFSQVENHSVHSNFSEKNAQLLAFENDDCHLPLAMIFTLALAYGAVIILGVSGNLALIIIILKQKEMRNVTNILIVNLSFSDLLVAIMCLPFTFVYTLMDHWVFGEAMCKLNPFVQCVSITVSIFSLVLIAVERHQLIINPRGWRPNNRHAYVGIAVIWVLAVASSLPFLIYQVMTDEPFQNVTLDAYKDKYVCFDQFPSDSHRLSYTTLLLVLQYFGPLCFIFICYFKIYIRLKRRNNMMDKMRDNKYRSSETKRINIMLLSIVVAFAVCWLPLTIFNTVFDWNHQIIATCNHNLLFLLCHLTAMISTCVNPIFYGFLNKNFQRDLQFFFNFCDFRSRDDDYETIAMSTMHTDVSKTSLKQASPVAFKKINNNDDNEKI
# measurement.notes: Inhibition of binding of [125I]PYY to membranes of SK-N-MC cells expressing the human Y1 receptors
pIC50: −log10 of the molar value.
measurement.type: pIC50

[
  {
    "compound": "COC(=O)C1=C(C)N=C(C)/C(=C(/O)OC)C1c1cccc(NC(=O)NCCNC2CCN(c3ccccc3O)CC2)c1 (stereo not given)",
    "pIC50": 8.22
  }
]

P = COC(=O)C1=C(C)N=C(C)/C(=C(/O)OC)C1c1cccc(N/C(=N/CCNC2CCN(c3ccccc3C)CC2)NC#N)c1 (stereo not given)
Q = COC(=O)C1=C(C)N=C(C)/C(=C(/O)OC)C1c1cccc(N/C(=N/CCCN2CCN(c3cccc(OC)c3)CC2)NC#N)c1 (stereo not given)
QUERY: # min-compare on pIC50 between P and Q Reply briefly: the label of your chosen item.
RESULT: Q

A = COC(=O)C1=C(C)N=C(C)/C(=C(/O)OC)C1c1cccc(NC(=O)NCCNC2CCN(c3cccc(Cl)c3)CC2)c1 (stereo not given)
B = COC(=O)C1=C(C)N=C(C)/C(=C(/O)OC)C1c1cccc(NC(=O)NCCNC2CCN(c3ccccc3C#N)CC2)c1 (stereo not given)
QUERY: From the items above, decide which of A and B has the lower pIC50 reading. Identify your selection by its label.
RESULT: A
(A: 8.10, B: 8.52)

1 = COC(=O)C1=C(C)N=C(C)/C(=C(/O)OC)C1c1cccc(N/C(=N/CCNC2CCN(c3ccccc3[N+](=O)[O-])CC2)NC#N)c1 (stereo not given)
2 = COC(=O)C1=C(C)N=C(C)/C(=C(/O)OC)C1c1cccc(N/C(=N/CCNC2CCN(c3ccccc3OC(F)(F)F)CC2)NC#N)c1 (stereo not given)
3 = COC(=O)C1=C(C)N=C(C)/C(=C(/O)OC)C1c1cccc(NC(=O)NCCNC2CCN(c3ccccc3)CC2)c1 (stereo not given)
QUERY: Could you please order the items by pIC50, going from the lowest number to the highest? As an answer, provide the labels arranged in the order called for.
RESULT: 2, 1, 3
(2: 7.55, 1: 8.40, 3: 8.70)

====

# measurement.target: UniProt:P25929
# measurement.notes: Inhibition of binding of [125I]PYY to membranes of SK-N-MC cells expressing the human Y1 receptors
measurement.type: IC50 (nM)

See these solved cases before continuing.
[
  {
    "molecule": "COC(=O)C1=C(C)N=C(C)/C(=C(/O)OC)C1c1cccc(NC(=O)NCCNC2CCN(c3ccccc3C)CC2)c1 (configuration not stated)",
    "measurement.type": "IC50",
    "recorded.measurement": 4
  },
  {
    "molecule": "COC(=O)C1=C(C)N=C(C)/C(=C(/O)OC)C1c1cccc(N/C(=N/CCNC2CCN(c3ccccc3C(F)(F)F)CC2)NC#N)c1 (configuration not stated)",
    "measurement.type": "IC50",
    "recorded.measurement": 14
  },
  {
    "molecule": "COC(=O)C1=C(C)N=C(C)/C(=C(/O)OC)C1c1cccc(N/C(=N/CCNC2CCN(c3ccccc3OC)CC2)NC#N)c1 (configuration not stated)",
    "measurement.type": "IC50",
    "recorded.measurement": 4
  }
]

1 = COC(=O)C1=C(C)N=C(C)/C(=C(/O)OC)C1c1cccc(N/C(=N/CCNC2CCN(c3ccccc3SC)CC2)NC#N)c1 (configuration not stated)
2 = COC(=O)C1=C(C)N=C(C)/C(=C(/O)OC)C1c1cccc(NC(=O)NCCNC2CCN(c3ccccc3C(F)(F)F)CC2)c1 (configuration not stated)
3 = COC(=O)C1=C(C)N=C(C)/C(=C(/O)OC)C1c1cccc(N/C(=N/CCNC2CCN(c3ccccc3O)CC2)NC#N)c1 (configuration not stated)
4 = COC(=O)C1=C(C)N=C(C)/C(=C(/O)OC)C1c1cccc(N/C(=N/CCNC2CCN(c3cccc(Cl)c3)CC2)NC#N)c1 (configuration not stated)
QUERY: Form: Sort by [IC50] Order [ ascending ] Present the labels in the sequence the task asks for.
RESULT: 1, 3, 4, 2
